Biological target: PilF159-302 Q218E (Thermus thermophilus, UniProt Q72H73, Q218E)
Sequence (Q72H73 159-302 Q218E): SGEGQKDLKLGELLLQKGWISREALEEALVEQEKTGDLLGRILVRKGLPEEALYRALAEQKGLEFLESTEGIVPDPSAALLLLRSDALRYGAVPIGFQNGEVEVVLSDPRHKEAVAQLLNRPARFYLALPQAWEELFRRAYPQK
Test: ITC c-di-GMP binding to Q218E mutant, pH series
Details: Na-Acetate, 20 °C, pH 4.0
attributeMeasured: Kd
Answer with the number, then the unit.

Exam item: Recorded Kd of Nc1nc2c(ncn2C2OC3COP(=O)(O)OC4C(COP(=O)(O)OC3C2O)OC(n2cnc3c(=O)[nH]c(N)nc32)C4O)c(=O)[nH]1 (stereo not shown) , please.
Marked response: 23 nM

* * *

Biological target: PilF159-302 Q190E (Thermus thermophilus, UniProt Q72H73, Q190E)
Assay: ITC c-di-GMP binding to Q190E mutant, pH series
Conditions: Tris, 20 °C, pH 7.0, buffer cross measurement, singlet
attributeMeasured: Kd (µM)
Give the value in µM but do not write µM after it.

Exam item: Any idea what Kd came out for Nc1nc2c(ncn2C2OC3COP(=O)(O)OC4C(COP(=O)(O)OC3C2O)OC(n2cnc3c(=O)[nH]c(N)nc32)C4O)c(=O)[nH]1 (stereo not shown) on PilF159-302 Q190E (Thermus thermophilus, UniProt Q72H73, Q190E)?
Marked response: 0.223

* * *

Biological target: PilF159-302 Q190E (Thermus thermophilus, UniProt Q72H73, Q190E)
Experiment: ITC c-di-GMP binding to Q190E mutant, pH series
Conditions: Tris, 20 °C, pH 8.0
attributeMeasured: Kd

Exam item: Any idea what Kd came out for Nc1nc2c(ncn2C2OC3COP(=O)(O)OC4C(COP(=O)(O)OC3C2O)OC(n2cnc3c(=O)[nH]c(N)nc32)C4O)c(=O)[nH]1 (stereo not shown) [c-di-GMP] on PilF159-302 Q190E (Thermus thermophilus, UniProt Q72H73, Q190E)?
Marked response: 729 nM

Origin of measurements: paper PMC12207366
